runDescription: qHTS Assay for Lipid Storage Modulators in Drosophila S3 Cells
measurementConditions: BODIPY lipid droplet fluorescence, 18-24 h, cells fed with added oleic acid; measured here: cell count max response
About 2,100 (0.66%) of roughly 320,000 compounds were called active. Inconclusive results (about 53%) are left out. The sample as a whole holds a higher share of actives than the screen did.
endpointName: cell number change (%)
Please give a number only; it is taken to be in %.

# example entries with known answers
Which cell number change is listed for "COc1ccc(OCc2nc3ccc(S(=O)(=O)Nc4ccccc4Cl)cc3[nH]2)cc1" ? 18.1

Entry "COc1ccccc1NS(=O)(=O)c1ccc2nc(CCl)[nH]c2c1" has what cell number change? -11.7

Which cell number change is reported for this compound? O=C(CSc1nc2ccccc2o1)N1N=C(c2cccs2)CC1c1ccc(F)cc1 (stereo unspecified) -17.4

Bench note: what cell number change did C=C(C)C(=O)N1CC2(CC(c3cccc(NC(=O)CC(c4ccccc4)c4ccccc4)c3)=NO2)C[C@H]1C(N)=O (stereo partly specified) show? -5.55

What value of cell number change has been reported for the following compound? "CCNCc1cc(Br)c(OCC(=O)Nc2ccccc2)c(OC)c1" 1.4

***
Which cell number change is listed for "COc1ccccc1NS(=O)(=O)c1ccc2[nH]c(=O)[nH]c2c1" ? -22.3

Which cell number change is listed for "COc1cc(CO)cc(Br)c1OCc1cccnc1" ? -5.87

# get_value(readout='cell number change', item= COc1ccc(C2CC(c3cccs3)=NN2C(=O)CSc2nc3ccccc3o2)cc1 (stereo unspecified) ) -8.56

----------
runDescription: qHTS Assay for Lipid Storage Modulators in Drosophila S3 Cells;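 for cell number change: cells counted by Cell Tracker Red CMTPX staining in the red channel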
measurementConditions: BODIPY lipid droplet fluorescence, 18-24 h, cells fed with added oleic acid; measured here: cell count max response
Among all 320,000 compounds or so, about 2,100 (0.66%) were called active. Inconclusive results (about 53%) are left out. For the sample, actives were picked, then their nearest neighbours and some compounds at random.
endpointName: cell number change (%)
Give just the numeric value; % need not be written.

Answered examples (8):
What does the data say about its cell number change? Entry: "NC(=O)NCCCC(=O)O" -16.4

Entry COc1ccc(Cc2nc3ccc(C(=O)NC(C)c4cn(C)nc4C)cc3o2)cc1 (configuration not stated) : reported cell number change = ? -22.9

If you can, please state the reported cell number change value of "CC(C)N(C(=O)CSc1nnc(NC(=O)c2cccs2)s1)C(C)C" . -20.6

Which cell number change value belongs to COc1ccc(-c2[nH]ncc2CN(C)C(C)c2cccs2)c(F)c1 (configuration not stated) ? 8.77

May I ask what cell number change has been recorded for "O=C(O)CCCN=C1NC2(CCCC2)Cc2ccccc21" ? 11.6

I'd like to know its cell number change. The compound in question is "COc1cc(C(=O)Nc2ccc(C)cn2)ccc1OCC(=O)N1CCOCC1" 5.26

Entry under review: "Nc1cnc(Br)cc1Br" . Reported cell number change? -3.4

# cell number change lookup, item "O=C(CCSc1ccccc1)Nc1ccccc1Br" 3.05

New cases:
So what's the measured cell number change for this one? "O=C(Nc1ccc(NC(=O)c2cccs2)cn1)c1ccccc1" 8.82

----------
runDescription: qHTS Assay for Lipid Storage Modulators in Drosophila S3 Cells
measurementConditions: BODIPY lipid droplet fluorescence, 18-24 h, cells fed with added oleic acid; series mostly up to 46.1 µM
The whole screen tested about 320,000 compounds, of which about 2,100 (0.66%) were called active. Not shown: some 53% with an inconclusive outcome. Calls follow the shape of the dose curve; as a rule, active = well fitted inhibition curve with a large enough effect in the signal ratio, with a control signal flat (not every such curve was filed as active); inconclusive = small, poorly fitted or top-dose-only effect, or effect the other way, or a change in a side signal; inactive = flat fitted curve, though single readings scatter; the % refers to the signal ratio. This excerpt belongs to a sample that is enriched for actives.
Lab note: assign the record to one of 1 = active, -1 = inactive

In this assay, the call recorded for "Cc1ccc(NC(=O)CSc2nnc(CNC(=O)c3ccco3)o2)cc1" was what? -1

What call does the record list for CCC1Oc2ccccc2N(CC(=O)NC2CCCCC2C)C1=O (centres undefined) ? 1

What outcome does the record of this test show for CCOC(=O)CC(NC(=O)c1cc2ccccc2oc1=O)c1cccc([N+](=O)[O-])c1 (centres undefined) ? -1

More entries:
Look up the recorded call for "COc1cc(C(=O)NCc2nnc(SCC(=O)Nc3cccc(C(F)(F)F)c3)o2)cc(OC)c1OC" in this test. 1

Which result was noted for this compound in the test: "COc1ccc(CNC(=O)CCn2c(=O)c3cccn3c3ccc(F)cc32)cc1" 1

So what was the verdict on CC1CCCCC1NC(=O)CN1C(=O)COc2ccccc21 (centres undefined) in this test? -1

Returns: the outcome recorded for "COc1cc(C(=O)NCc2nnc(SCC(=O)N3CCCCC3)o2)cc(OC)c1OC" in this assay. 1

# outcome recorded in this test, key = "COc1ccc(-c2cc(=O)oc3cc(OCc4nn[nH]n4)ccc23)cc1" -1

----------
runDescription: qHTS Assay for Lipid Storage Modulators in Drosophila S3 Cells;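 for cell number change: cells counted by Cell Tracker Red CMTPX staining in the red channel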
measurementConditions: BODIPY lipid droplet fluorescence, 18-24 h, cells fed with added oleic acid; measured here: cell count max response
Hit rate of the full screen: of about 320,000 compounds, about 2,100 (0.66%) were called active. Not shown: some 53% with an inconclusive outcome. This is one part of a sample in which actives are shown more often than they occur.
cell number change by entry:
Give the quantity in %, number only.

Example cases with answers are listed next.
Which cell number change is reported for this molecule? "NS(=O)(=O)c1cccc(NS(=O)(=O)c2ccc3ccccc3c2)c1" -9.72

Given the molecule COc1ccc(CN2CC(C(=O)NCCc3ccc(C)cc3)CC2=O)cc1 (stereo not drawn) , what is its reported cell number change? 1.29

Continuing:
Look at this molecule and give its reported cell number change. COc1ccc(NC(=O)COC(=O)C2CC(=O)N(Cc3ccc(C)cc3)C2)cc1 (stereo not drawn) -4.17

----------
runDescription: qHTS Assay for Lipid Storage Modulators in Drosophila S3 Cells;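 for cell number change: cells counted by Cell Tracker Red CMTPX staining in the red channel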
measurementConditions: BODIPY lipid droplet fluorescence, 18-24 h, cells fed with added oleic acid; measured here: cell count max response
About 2,100 (0.66%) of roughly 320,000 compounds were called active. Roughly 53% stayed inconclusive and do not appear here. The sample holds actives, similar compounds and a random draw of the others, so the mix is not that of the screen.
Everything with cell number change lower than -10% is 0; everything else, including exactly -10%, is 1.

# example entries with known answers
Threshold query (cell number change >= -10%) on CCOC(=O)C(O)(CC(=O)Nc1cc(F)ccc1C)C(F)(F)F (stereo not given) 1

Tell me whether cell number change is at least -10% here: "Cc1ccc(NC(=O)c2cn(CCC#N)nc2-c2cccs2)c([N+](=O)[O-])c1" 1

Continuing:
Please indicate if the recorded cell number change for COc1cc(-c2nnc(SC(C)C(=O)Nc3c(C)n(C)n(-c4ccccc4)c3=O)o2)cc(OC)c1OC (stereo not given) meets or exceeds -10%. 0

I'd appreciate it if you could say whether NC(=O)C1CCCN(Cc2ccc3ccccc3c2)C1 (stereo not given) has cell number change at least equal to -10%. 1

Please check the record NC(=O)C1CCCN(Cc2ccc(Cl)cc2)C1 (stereo not given) and state if its cell number change is at or above -10%. 0

----------
runDescription: qHTS Assay for Lipid Storage Modulators in Drosophila S3 Cells;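 for cell number change: cells counted by Cell Tracker Red CMTPX staining in the red channel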
measurementConditions: BODIPY lipid droplet fluorescence, 18-24 h, cells fed with added oleic acid; measured here: cell count max response
The whole screen tested about 320,000 compounds, of which about 2,100 (0.66%) were called active. Another 53% or so got no clear call; they are omitted. Shown is part of a subset that was picked to be rich in actives.
endpointName: cell number change (%)
Express it in %; write the number only.

Past entries and their recorded results:
What does the data say about its cell number change? Entry: CCc1cc2c(-c3ccccc3)cc(=O)oc2cc1OC(C)C(=O)NCC1CCC(C(=O)O)CC1 (centres undefined) 17.8

Which cell number change value belongs to COc1ccc(NC2CCCN(C(=O)c3ccncc3)C2)cc1 (centres undefined) ? -9.17

Which cell number change value belongs to CCOC(=O)C(NC(=O)CC)(Nc1ccc(S(N)(=O)=O)cc1)C(F)(F)F (centres undefined) ? 9.23

What measured cell number change goes with "CCc1nn(CCCC(=O)NCc2ccccc2C)c(=O)c2cc3occc3n12" ? -19.5

# lookup: cell number change of "O=C(CS(=O)(=O)c1ccccc1)Nc1nnc(-c2cccs2)o1" 3.1

Give its cell number change value. Item: "CCc1cccc(NC(=O)CCCn2nc(CC)n3c(cc4occc43)c2=O)c1" -27.3

Name the recorded cell number change for "CSc1nsc(SCC(=O)N2CCc3ccccc32)n1" . -10.2

Requested read-out: cell number change. Entry: "CC(=O)Nc1ccc(C(=O)/C=C/c2ccco2)cc1" -0.499

Which cell number change value belongs to O=C(/C=C/c1ccco1)N(Cc1ccccc1F)C1CCS(=O)(=O)C1 (centres undefined) ? 19.4

Item "Cc1ccccc1OCC(=O)Nc1c2c(nn1C(C)(C)C)CS(=O)(=O)C2" has what recorded cell number change? -4.53

Continuing:
Would you mind telling me what cell number change value was observed for "CCOC(=O)C1(Cc2ccc(Cl)cc2)CCN(C(=O)c2cc(C)nc(C)n2)CC1" ? -4.86

What cell number change value was documented for this compound, COc1ccc(NC2CCCN(C(=O)CSc3ccncc3)C2)cc1 (centres undefined) ? -29

Any idea what cell number change was measured for CCC(C)NCCOCCSc1ccc(Cl)cc1 (centres undefined) ? 14.1

Record request: cell number change value, item Cc1c(OCC(=O)NCC2CCC(C(=O)O)CC2)ccc2c(-c3ccccc3)cc(=O)oc12 (centres undefined) 0.647

Need cell number change of Cc1ccc(S(=O)(=O)NC(C(=O)N2CCOCCOCCOCCOCC2)C(C)C)cc1 (centres undefined) , thanks. -9.21
